target: recombinant rat α2β3γ2F77I receptors (Rattus norvegicus, UniProt P18508+P23576, F115I); experiment: Two-electrode voltage clamp of GABA-induced chloride currents in Xenopus oocytes; assay type: cell-based; conditions: 10 μM; α2β3γ2F77I; ns = not significant
Sequence (P23576 29-451, one chain of several): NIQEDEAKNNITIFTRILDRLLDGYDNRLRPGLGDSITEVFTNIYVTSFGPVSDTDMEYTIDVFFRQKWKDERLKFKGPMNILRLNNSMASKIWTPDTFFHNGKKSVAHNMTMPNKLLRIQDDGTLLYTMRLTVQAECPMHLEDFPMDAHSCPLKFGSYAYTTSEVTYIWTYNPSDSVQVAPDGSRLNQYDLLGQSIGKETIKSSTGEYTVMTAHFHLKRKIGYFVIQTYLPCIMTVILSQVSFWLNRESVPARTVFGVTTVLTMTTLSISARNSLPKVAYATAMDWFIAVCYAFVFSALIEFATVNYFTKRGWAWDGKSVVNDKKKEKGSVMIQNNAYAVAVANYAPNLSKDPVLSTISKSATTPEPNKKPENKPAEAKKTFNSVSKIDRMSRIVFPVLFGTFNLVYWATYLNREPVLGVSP
Sequence (P18508 39-466 F115I, one chain of several): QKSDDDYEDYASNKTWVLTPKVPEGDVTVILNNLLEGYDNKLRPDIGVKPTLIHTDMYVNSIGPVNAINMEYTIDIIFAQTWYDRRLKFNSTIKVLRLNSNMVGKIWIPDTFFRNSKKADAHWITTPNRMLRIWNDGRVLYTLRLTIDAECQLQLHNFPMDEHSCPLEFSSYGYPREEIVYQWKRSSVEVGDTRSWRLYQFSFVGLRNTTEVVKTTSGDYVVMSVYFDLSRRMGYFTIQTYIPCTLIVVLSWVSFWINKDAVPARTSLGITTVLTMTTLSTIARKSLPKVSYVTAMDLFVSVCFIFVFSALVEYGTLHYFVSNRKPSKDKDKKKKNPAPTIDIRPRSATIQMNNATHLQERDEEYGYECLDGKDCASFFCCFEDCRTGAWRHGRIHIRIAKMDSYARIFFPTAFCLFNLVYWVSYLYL
We begin with a simple list: items and their reported efficacy (% GABA EC3).
Respond numerically; units are % GABA EC3 and should not be typed.

CN1C(=O)CN=C(c2ccccc2)c2cc(Cl)ccc21    278
CC(C)(C)OC(=O)c1ncn2c1[C@@H]1CCCN1C(=O)c1c(Br)cccc1-2    179
Cc1ccc(-c2nc3ccc(C)cn3c2CC(=O)N(C)C)cc1    145

Shifting focus to the compound that follows.
Which efficacy (% GABA EC3) reading was recorded for the compound CN1CCN(C(=O)OC2c3nccnc3C(=O)N2c2ccc(Cl)cn2)CC1 (centres unmarked) ?
121

====

molecular target: recombinant rat α4β3γ2 receptors (Rattus norvegicus, UniProt P18508+P28471); experiment: Two-electrode voltage clamp of GABA-induced chloride currents in Xenopus oocytes; format: cell-based; conditions: 1 μM; α4β3γ2; ns = not significant
Sequence (P28471 36-552, one chain of several): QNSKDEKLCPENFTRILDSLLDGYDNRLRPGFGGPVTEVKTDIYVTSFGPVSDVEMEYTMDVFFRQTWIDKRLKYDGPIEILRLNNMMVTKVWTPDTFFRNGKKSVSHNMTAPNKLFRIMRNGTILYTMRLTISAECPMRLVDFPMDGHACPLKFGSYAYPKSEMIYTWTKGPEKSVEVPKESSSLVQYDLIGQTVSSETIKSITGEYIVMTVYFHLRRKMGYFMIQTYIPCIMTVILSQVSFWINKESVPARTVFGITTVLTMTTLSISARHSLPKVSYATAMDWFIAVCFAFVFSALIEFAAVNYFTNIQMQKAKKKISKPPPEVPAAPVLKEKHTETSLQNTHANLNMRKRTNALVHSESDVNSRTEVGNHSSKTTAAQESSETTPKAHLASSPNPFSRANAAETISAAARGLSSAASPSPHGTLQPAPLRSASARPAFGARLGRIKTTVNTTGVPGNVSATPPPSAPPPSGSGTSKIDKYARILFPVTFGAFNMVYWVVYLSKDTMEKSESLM
Measure: efficacy (% GABA EC3)

Please review the following examples before continuing.
CCc1c(C(=O)OC)ncc2[nH]c3cc(OC)c(OC)cc3c12    88 ± 2 % GABA EC3
COCc1c(C(=O)OC(C)C)ncc2[nH]c3ccc(OCc4ccccc4)cc3c12    ns
CN1C(=O)CN=C(c2ccccc2)c2cc(Cl)ccc21    ns
CN1CCN(C(=O)OC2c3nccnc3C(=O)N2c2ccc(Cl)cn2)CC1 (stereo not drawn)    ns
CC(C)(C)OC(=O)c1ncn2c1[C@@H]1CCCN1C(=O)c1c(Br)cccc1-2    332 ± 23 % GABA EC3

Notebook: pull reported efficacy (% GABA EC3) for recombinant rat α4β3γ2 receptors (Rattus norvegicus, UniProt P18508+P28471), entry CCOC(=O)c1ncn2c1CN(C)C(=O)c1cc(F)ccc1-2
162 ± 19 % GABA EC3

Subsequent entry: Cc1ccc(-c2nc3ccc(C)cn3c2CC(=O)N(C)C)cc1
ns

Next entry: CNC(=O)c1cc2c(cn1)[nH]c1ccccc12 [FG7142, N-methyl-β-carboline-3-carboxamide]
ns

# repeat for Cc1nnc2ccc(-c3cccc(C(F)(F)F)c3)nn12
ns

====

molecular target: recombinant rat α5β3γ2 receptors (Rattus norvegicus, UniProt P18508+P19969); test: Two-electrode voltage clamp of GABA-induced chloride currents in Xenopus oocytes
Measure: pEC50
In plain terms, pEC50 is the concentration in mol/L turned into minus its base-10 logarithm.

CC(C)(C)OC(=O)c1ncn2c1[C@@H]1CCCN1C(=O)c1c(Br)cccc1-2    8.05

Report pEC50 for CN1CCN(C(=O)OC2c3nccnc3C(=O)N2c2ccc(Cl)cn2)CC1 (centres unmarked) please.
6.75

====

target: recombinant rat α2β3γ2F77I receptors (Rattus norvegicus, UniProt P18508+P23576, F115I); experiment: Two-electrode voltage clamp of GABA-induced chloride currents in Xenopus oocytes; assay type: cell-based; conditions: 1 μM; α2β3γ2F77I; ns = not significant
Measure: efficacy (% GABA EC3)

CN1C(=O)CN=C(c2ccccc2)c2cc(Cl)ccc21    265 ± 4 % GABA EC3
Cc1nnc2ccc(-c3cccc(C(F)(F)F)c3)nn12    ns
Cc1ccc(-c2nc3ccc(C)cn3c2CC(=O)N(C)C)cc1    ns
CCOC(=O)c1ncn2c1CN(C)C(=O)c1cc(F)ccc1-2    ns

====

target: recombinant rat α3β3γ2F77I receptors (Rattus norvegicus, UniProt P18508+P20236, F115I); test: Two-electrode voltage clamp of GABA-induced chloride currents in Xenopus oocytes; format: cell-based; details: 10 μM; α3β3γ2F77I; ns = not significant
Sequence (P18508 39-466 F115I, one chain of several): as the sequence (P18508 39-466 F115I, one chain of several) above
Measure: efficacy (% GABA EC3)
Respond numerically; units are % GABA EC3 and should not be typed.

Study these solved cases before continuing.
CN1CCN(C(=O)OC2c3nccnc3C(=O)N2c2ccc(Cl)cn2)CC1 (centres unmarked)    119
CCc1c(C(=O)OC)ncc2[nH]c3cc(OC)c(OC)cc3c12    281
Cc1nnc2ccc(-c3cccc(C(F)(F)F)c3)nn12    125
CN1C(=O)CN=C(c2ccccc2)c2cc(Cl)ccc21    272
CC(C)(C)OC(=O)c1ncn2c1[C@@H]1CCCN1C(=O)c1c(Br)cccc1-2    238
CCOC(=O)c1ncn2c1CN(C)C(=O)c1cc(F)ccc1-2    139

Can you look up the measured efficacy (% GABA EC3) of Cc1ccc(-c2nc3ccc(C)cn3c2CC(=O)N(C)C)cc1 for me?
145

====

molecular target: recombinant rat α2β3γ2F77I receptors (Rattus norvegicus, UniProt P18508+P23576, F115I); assay: Two-electrode voltage clamp of GABA-induced chloride currents in Xenopus oocytes; assay type: cell-based; settings: 100 nM; α2β3γ2F77I; ns = not significant
Measure: efficacy (% GABA EC3)

Please review the entries below; each comes with its answer.
Cc1ccc(-c2nc3ccc(C)cn3c2CC(=O)N(C)C)cc1    ns
CCOC(=O)c1ncn2c1CN(C)C(=O)c1cc(F)ccc1-2    ns
CCc1c(C(=O)OC)ncc2[nH]c3cc(OC)c(OC)cc3c12    111 ± 2 % GABA EC3
CNC(=O)c1cc2c(cn1)[nH]c1ccccc12 [FG7142, N-methyl-β-carboline-3-carboxamide]    ns
CN1CCN(C(=O)OC2c3nccnc3C(=O)N2c2ccc(Cl)cn2)CC1 (stereo not drawn)    ns

Query efficacy (% GABA EC3) on recombinant rat α2β3γ2F77I receptors (Rattus norvegicus, UniProt P18508+P23576, F115I) for CN1C(=O)CN=C(c2ccccc2)c2cc(Cl)ccc21
181 ± 1 % GABA EC3

Now the same for CCOC(=O)c1ncn2c1C1CCCN1C(=O)c1cc(OC)ccc1-2 (stereo not drawn)
ns

And then COCc1c(C(=O)OC(C)C)ncc2[nH]c3ccc(OCc4ccccc4)cc3c12 , what is it?
ns

# iterate: Cc1nnc2ccc(-c3cccc(C(F)(F)F)c3)nn12
ns

====

Parameter: EC50. Scope: all listed entries.
target: recombinant rat α3β3γ2 receptors (Rattus norvegicus, UniProt P18508+P20236); test: Two-electrode voltage clamp of GABA-induced chloride currents in Xenopus oocytes
Sequence (P20236 29-493): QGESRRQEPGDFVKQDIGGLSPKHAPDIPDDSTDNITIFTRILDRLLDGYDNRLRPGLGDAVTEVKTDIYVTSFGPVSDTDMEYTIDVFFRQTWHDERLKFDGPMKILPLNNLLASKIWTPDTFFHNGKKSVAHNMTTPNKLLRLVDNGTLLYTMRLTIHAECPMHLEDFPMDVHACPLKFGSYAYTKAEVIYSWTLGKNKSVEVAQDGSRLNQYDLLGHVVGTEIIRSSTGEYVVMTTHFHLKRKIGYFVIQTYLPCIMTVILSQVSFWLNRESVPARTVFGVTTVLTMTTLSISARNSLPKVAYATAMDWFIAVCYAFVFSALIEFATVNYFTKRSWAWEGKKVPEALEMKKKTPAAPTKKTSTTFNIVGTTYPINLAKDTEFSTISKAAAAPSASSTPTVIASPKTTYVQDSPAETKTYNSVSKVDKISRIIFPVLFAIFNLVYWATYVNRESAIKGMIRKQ
Sequence (P63079 26-473 partner): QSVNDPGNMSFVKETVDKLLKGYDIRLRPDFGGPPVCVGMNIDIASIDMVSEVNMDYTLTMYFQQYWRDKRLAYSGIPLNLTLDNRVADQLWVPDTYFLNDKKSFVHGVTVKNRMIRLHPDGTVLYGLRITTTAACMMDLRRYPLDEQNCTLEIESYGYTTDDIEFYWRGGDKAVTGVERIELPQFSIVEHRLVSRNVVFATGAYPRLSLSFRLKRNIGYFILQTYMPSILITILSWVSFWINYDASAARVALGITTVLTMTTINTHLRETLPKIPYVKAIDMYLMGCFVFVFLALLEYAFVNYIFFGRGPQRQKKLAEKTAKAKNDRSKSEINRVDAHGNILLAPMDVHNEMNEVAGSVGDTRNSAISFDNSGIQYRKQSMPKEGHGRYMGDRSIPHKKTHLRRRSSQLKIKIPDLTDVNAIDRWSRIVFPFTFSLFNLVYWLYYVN
Sequence (P18508 39-466): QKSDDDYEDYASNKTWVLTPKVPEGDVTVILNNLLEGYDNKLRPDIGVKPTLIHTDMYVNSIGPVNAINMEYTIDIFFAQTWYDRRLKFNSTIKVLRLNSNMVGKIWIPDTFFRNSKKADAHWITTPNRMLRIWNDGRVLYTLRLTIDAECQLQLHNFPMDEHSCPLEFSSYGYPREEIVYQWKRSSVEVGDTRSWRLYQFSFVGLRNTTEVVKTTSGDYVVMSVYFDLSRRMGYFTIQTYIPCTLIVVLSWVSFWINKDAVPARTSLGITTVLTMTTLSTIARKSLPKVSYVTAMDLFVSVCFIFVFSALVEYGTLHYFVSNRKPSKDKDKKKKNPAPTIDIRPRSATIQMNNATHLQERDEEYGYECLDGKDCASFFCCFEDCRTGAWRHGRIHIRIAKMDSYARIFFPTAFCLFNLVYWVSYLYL

Would you please look over these solved cases?
COCc1c(C(=O)OC(C)C)ncc2[nH]c3ccc(OCc4ccccc4)cc3c12    > 2000 nM
CCOC(=O)c1ncn2c1C1CCCN1C(=O)c1cc(OC)ccc1-2 (stereo not shown)    10 nM
CN1CCN(C(=O)OC2c3nccnc3C(=O)N2c2ccc(Cl)cn2)CC1 (stereo not shown)    > 793 nM

Kindly consider the entry below.
Which EC50 is listed for CC(C)(C)OC(=O)c1ncn2c1[C@@H]1CCCN1C(=O)c1c(Br)cccc1-2 ?
15 nM

====

biological target: recombinant rat α2β3γ2 receptors (Rattus norvegicus, UniProt P18508+P23576); assay: Two-electrode voltage clamp of GABA-induced chloride currents in Xenopus oocytes; assay type: cell-based; details: 100 nM; α2β3γ2; ns = not significant
Sequence (P23576 29-451, one chain of several): as the sequence (P23576 29-451, one chain of several) above
Measure: efficacy (% GABA EC3)
// units = % GABA EC3; emit number, no label

CN1C(=O)CN=C(c2ccccc2)c2cc(Cl)ccc21    426
CN1CCN(C(=O)OC2c3nccnc3C(=O)N2c2ccc(Cl)cn2)CC1 (stereo not drawn)    157
CCc1c(C(=O)OC)ncc2[nH]c3cc(OC)c(OC)cc3c12    54
CC(C)(C)OC(=O)c1ncn2c1[C@@H]1CCCN1C(=O)c1c(Br)cccc1-2    128

Read the next record carefully.
# lookup: efficacy (% GABA EC3) of CCOC(=O)c1ncn2c1CN(C)C(=O)c1cc(F)ccc1-2
128

====

target: recombinant rat α5β3γ2F77I receptors (Rattus norvegicus, UniProt P18508+P19969, F115I); assay: Two-electrode voltage clamp of GABA-induced chloride currents in Xenopus oocytes; format: cell-based; details: 100 nM; α5β3γ2F77I; ns = not significant
Sequence (P19969 32-464 limits assumed): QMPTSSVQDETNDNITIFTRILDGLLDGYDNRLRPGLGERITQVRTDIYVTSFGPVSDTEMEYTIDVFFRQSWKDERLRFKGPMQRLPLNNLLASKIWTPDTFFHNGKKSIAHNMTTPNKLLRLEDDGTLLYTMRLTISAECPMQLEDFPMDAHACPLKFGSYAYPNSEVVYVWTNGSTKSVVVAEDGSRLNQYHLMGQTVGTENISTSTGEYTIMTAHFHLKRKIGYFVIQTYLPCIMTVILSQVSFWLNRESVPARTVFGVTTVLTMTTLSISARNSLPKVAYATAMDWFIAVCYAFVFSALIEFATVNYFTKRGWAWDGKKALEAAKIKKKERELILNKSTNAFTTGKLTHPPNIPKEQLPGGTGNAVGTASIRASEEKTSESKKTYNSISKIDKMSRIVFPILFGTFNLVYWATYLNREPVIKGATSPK
Sequence (P63079 26-473 partner): as the sequence (P63079 26-473 partner) above
Sequence (P18508 39-466 F115I): as the sequence (P18508 39-466) above, with F77I counted along it
Measure: efficacy (% GABA EC3)

Below, 8 compounds whose answers are already recorded.
Cc1nnc2ccc(-c3cccc(C(F)(F)F)c3)nn12    ns
CC(C)(C)OC(=O)c1ncn2c1[C@@H]1CCCN1C(=O)c1c(Br)cccc1-2    124 ± 3 % GABA EC3
CCOC(=O)c1ncn2c1C1CCCN1C(=O)c1cc(OC)ccc1-2 (stereo not drawn)    ns
Cc1ccc(-c2nc3ccc(C)cn3c2CC(=O)N(C)C)cc1    ns
CCOC(=O)c1ncn2c1CN(C)C(=O)c1cc(F)ccc1-2    ns
CN1CCN(C(=O)OC2c3nccnc3C(=O)N2c2ccc(Cl)cn2)CC1 (stereo not drawn)    ns
CN1C(=O)CN=C(c2ccccc2)c2cc(Cl)ccc21    135 ± 7 % GABA EC3
COCc1c(C(=O)OC(C)C)ncc2[nH]c3ccc(OCc4ccccc4)cc3c12    ns

Attention now shifts to the item below.
// lookup efficacy (% GABA EC3) for CCc1c(C(=O)OC)ncc2[nH]c3cc(OC)c(OC)cc3c12
ns

From: paper PMC7615656
